Assay: Cytotoxicity against HUVEC cells assessed as inhibition of cell growth at 10 uM measured after 72 hrs by MTT assay
Type: cell-based
Conditions: human
Endpoint name: inhibition at 72 h, 10 µM (%)

{"columns": ["Compound", "Endpoint name", "U", "Relation sign", "Recorded value"],
 "data": [
  ["CC(C)(C)c1cc2c(O)c(c1)Cc1cc(C(C)(C)C)cc(c1OCCCC(=O)NCCO)Cc1cc(C(C)(C)C)cc(c1O)Cc1cc(C(C)(C)C)cc(c1OCCCC(=O)NCCO)C2", "inhibition at 72 h, 10 µM", "%", "=", 57],
  ["CC(C)(C)c1cc2c(O)c(c1)Cc1cc(C(C)(C)C)cc(c1OCCCCCC(=O)NCCO)Cc1cc(C(C)(C)C)cc(c1O)Cc1cc(C(C)(C)C)cc(c1OCCCCCC(=O)NCCO)C2", "inhibition at 72 h, 10 µM", "%", "<", 0],
  ["CC(C)(C)c1cc2c(O)c(c1)Cc1cc(C(C)(C)C)cc(c1OC/C=C/C(=O)N(CCO)CCO)Cc1cc(C(C)(C)C)cc(c1O)Cc1cc(C(C)(C)C)cc(c1OC/C=C/C(=O)N(CCO)CCO)C2", "inhibition at 72 h, 10 µM", "%", "<", 0],
  ["CC(C)(C)c1cc2c(O)c(c1)Cc1cc(C(C)(C)C)cc(c1OCCCCCC(=O)NCCCO)Cc1cc(C(C)(C)C)cc(c1O)Cc1cc(C(C)(C)C)cc(c1OCCCCCC(=O)NCCCO)C2", "inhibition at 72 h, 10 µM", "%", "<", 0],
  ["CC(Oc1c2cc(C(C)(C)C)cc1Cc1cc(C(C)(C)C)cc(c1O)Cc1cc(C(C)(C)C)cc(c1OC(C)C(=O)NCCCO)Cc1cc(C(C)(C)C)cc(c1O)C2)C(=O)NCCCO (stereo unspecified)", "inhibition at 72 h, 10 µM", "%", "=", 48.2],
  ["CC(Oc1c2cc(C(C)(C)C)cc1Cc1cc(C(C)(C)C)cc(c1O)Cc1cc(C(C)(C)C)cc(c1OC(C)C(=O)NCCO)Cc1cc(C(C)(C)C)cc(c1O)C2)C(=O)NCCO (stereo unspecified)", "inhibition at 72 h, 10 µM", "%", "=", 35.7],
  ["CCC(Oc1c2cc(C(C)(C)C)cc1Cc1cc(C(C)(C)C)cc(c1O)Cc1cc(C(C)(C)C)cc(c1OC(CC)C(=O)NCCCO)Cc1cc(C(C)(C)C)cc(c1O)C2)C(=O)NCCCO (stereo unspecified)", "inhibition at 72 h, 10 µM", "%", "<", 0],
  ["CCC(Oc1c2cc(C(C)(C)C)cc1Cc1cc(C(C)(C)C)cc(c1O)Cc1cc(C(C)(C)C)cc(c1OC(CC)C(=O)NCCO)Cc1cc(C(C)(C)C)cc(c1O)C2)C(=O)NCCO (stereo unspecified)", "inhibition at 72 h, 10 µM", "%", "=", 34.3],
  ["CC(Oc1c2cc(C(C)(C)C)cc1Cc1cc(C(C)(C)C)cc(c1O)Cc1cc(C(C)(C)C)cc(c1OC(C)C(=O)N(CCO)CCO)Cc1cc(C(C)(C)C)cc(c1O)C2)C(=O)N(CCO)CCO (stereo unspecified)", "inhibition at 72 h, 10 µM", "%", "=", 57.2],
  ["CC(C)(C)c1cc2c(O)c(c1)Cc1cc(C(C)(C)C)cc(c1OCCCC(=O)NCCCCCO)Cc1cc(C(C)(C)C)cc(c1O)Cc1cc(C(C)(C)C)cc(c1OCCCC(=O)NCCCCCO)C2", "inhibition at 72 h, 10 µM", "%", "=", 5.8],
  ["CC(C)(C)c1cc2c(O)c(c1)Cc1cc(C(C)(C)C)cc(c1OC/C=C/C(=O)NCCCCCO)Cc1cc(C(C)(C)C)cc(c1O)Cc1cc(C(C)(C)C)cc(c1OC/C=C/C(=O)NCCCCCO)C2", "inhibition at 72 h, 10 µM", "%", "=", 23.8]
]}
